# Test system: Nuclear hormone receptor DAF-12 (Heterodera glycines), GAL4 fusion
# EXPERIMENT_DESCRIPTION: H. glycines DAF-12 receptor agonists, primary screen, cell-based, luminescence, HEK293, GAL4 fusion, UAS-luciferase (AID 687014)
# CONDITIONS_USED: HEK293 GAL4-hgDAF12 UAS-luciferase reporter, agonist luminescence; at 6.8 µM; normalized to butyrate control
About 6,800 (1.8%) of roughly 370,000 compounds were called active.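 How the source made its calls: active means activation above a cutoff set at the mean of all screened compounds plus 3 SD (cut at about 10% in these data); inactive means the rest.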 For the sample, actives were picked, then their nearest neighbours and some compounds at random.
// allowed return values: active, inactive

* O=C(CCS(=O)(=O)Cc1ccccc1F)NCCCN1CCCCC1 | inactive
* CCC1([N+](=O)[O-])COC(c2ccc(C(C)C)cc2)OC1 (stereo not drawn) | active

Prompt: Name the outcome recorded for `C=CCn1cc(C(=O)NCc2ccc(Cl)cc2)c(=O)c2cc(S(=O)(=O)N(CC)CC)ccc21` in the assay.
Completion: inactive

Prompt: Name the outcome recorded for COc1ccc(C2CC(c3ccccc3)=NN2C(=O)CSc2nccc(=O)[nH]2)cc1 (stereo not drawn) in the assay.
Completion: inactive

Prompt: Name the outcome recorded for `Nc1ncnc2c1ncn2[C@@H]1O[C@H](C(=O)N[C@@H](CCc2ccccc2)C(=O)NCC(=O)N2CCOCC2)[C@@H](O)[C@H]1O` in the assay.
Completion: inactive

Prompt: Name the outcome recorded for `COc1ccc(N2CCN(CCNS(=O)(=O)c3ccc(C(C)(C)C)cc3)CC2)cc1` in the assay.
Completion: inactive

Prompt: Name the outcome recorded for COc1ccc(C(C)(NC(C)=O)c2nc(-c3ccc(S(C)(=O)=O)cc3)cs2)cc1 (stereo not drawn) in the assay.
Completion: inactive

Prompt: Name the outcome recorded for COc1ccc(C2=NN(C(=O)c3ccccc3C(=O)O)C(c3ccccc3O)C2)cc1 (stereo not drawn) in the assay.
Completion: active

Prompt: Name the outcome recorded for `COc1ccc(-c2csc(Cc3nc(O)cs3)n2)cc1` in the assay.
Completion: active

Prompt: Name the outcome recorded for `NC(=O)c1ccccc1N=Cc1ccc2ccccc2c1` in the assay.
Completion: active

Prompt: Name the outcome recorded for C=C(C)C#CC(Cc1ccccc1)NCC1CC1 (stereo not drawn) in the assay.
Completion: inactive

Prompt: Name the outcome recorded for `COCCNC(=S)N(C)[C@H]1C[C@H]2c3[nH]c4ccccc4c3CCN2C[C@H]1[C@H](C)O` in the assay.
Completion: inactive

Prompt: Name the outcome recorded for `COc1ccccc1N1CCN(/N=C/c2ccc(O)cc2O)CC1` in the assay.
Completion: active

Prompt: Name the outcome recorded for C=CCN(Cc1ccc2c(c1)OCO2)C(C#CC1CC1)C(C)(C)C (stereo not drawn) in the assay.
Completion: inactive

Prompt: Name the outcome recorded for `Cc1ccn(-c2cccc(-n3ccc(C)n3)n2)n1` in the assay.
Completion: active

Prompt: Name the outcome recorded for `C[C@@H]1CN([C@H](C)CO)C(=O)CCCn2cc(nn2)CO[C@H]1CN(C)C(=O)Nc1ccc(N2CCCCC2)cc1` in the assay.
Completion: inactive

Prompt: Name the outcome recorded for `CCOC(=O)N1CCN(Cc2oc(CO)cc(=O)c2O)CC1` in the assay.
Completion: inactive

Prompt: Name the outcome recorded for `Cc1cc(NCCc2c[nH]c3ccccc23)ccc1Oc1cccnc1` in the assay.
Completion: inactive

Prompt: Name the outcome recorded for `Cc1ccc(C(=O)NNc2ncnc3ccccc23)cc1` in the assay.
Completion: active
